Can you tell me zone of inhibition at 1500 µg/mL for the items I'm about to list?
Test system: Micrococcus luteus
Test: Antibacterial activity against Micrococcus luteus MTCC 1538 at 1500 ug/ml after 18 hr by cup-plate method
Format: functional
Conditions: MTCC 1538, 18 h, read-out: DIZ
One number for each entry, in mm.

Give zone of inhibition at 1500 µg/mL for all compounds that follow.
1. Clc1ccc(/N=C/c2cccs2)cc1
2. C(=N/c1nc[nH]n1)/c1cccc2ccccc12
3. Cc1cccnc1/N=C/c1cccc2ccccc12
4. Clc1ccc(/N=C\c2cccc3ccccc23)cc1
5. Cc1cc(/N=C/c2cccc3ccccc23)no1
6. C(=N\c1ccccn1)/c1cccc2ccccc12
7. C(=N\c1nc[nH]n1)/c1cccs1

Solution:
[24, 23, 26, 25, 24, 24, 22]

Give zone of inhibition at 1500 µg/mL for all compounds that follow.
1. O=c1c(/C=N/c2ccc(Cl)cc2)coc2ccccc12
2. C(=N\c1nc[nH]n1)/c1ccco1

Solution:
1: 24; 2: 22

Problem: Could you tell me which zone of inhibition at 1500 µg/mL is on file for O=c1c(/C=N/c2nc[nH]n2)coc2ccccc12 ?
Solution: 23

###

Can you tell me zone of inhibition at 1500 µg/mL for the items I'm about to list?
System: Aspergillus niger
Experiment: Antifungal activity against Aspergillus niger MTCC 2546 at 1500 ug/ml after 18 hr by cup-plate method
Format: functional
Conditions: MTCC 2546, 18 h, read-out: DIZ
One number for each entry, in mm.

Below: 4 compounds and their reported zone of inhibition at 1500 µg/mL.
smiles_repr=C(=N/c1nc[nH]n1)/c1cccc2ccccc12 assayed_system="Aspergillus niger" recorded_metric="zone of inhibition at 1500 µg/mL" measured=22
smiles_repr=C(=N\c1nc[nH]n1)/c1cccs1 assayed_system="Aspergillus niger" recorded_metric="zone of inhibition at 1500 µg/mL" measured=19
smiles_repr=O=c1c(/C=N/c2ccc(Cl)cc2)coc2ccccc12 assayed_system="Aspergillus niger" recorded_metric="zone of inhibition at 1500 µg/mL" measured=21
smiles_repr=O=c1c(/C=N/c2nc[nH]n2)coc2ccccc12 assayed_system="Aspergillus niger" recorded_metric="zone of inhibition at 1500 µg/mL" measured=22

Give zone of inhibition at 1500 µg/mL for all compounds that follow.
1. Cc1cccnc1/N=C/c1cccc2ccccc12
2. C(=N\c1nc[nH]n1)/c1ccco1

Solution:
21
23

###

Tested on: Bacillus pumilus
Experiment: Antibacterial activity against Bacillus pumilus MTCC 1456 after 24 hr by broth dilution method
Format: functional
Settings: MTCC 1456, 24 h
recorded-metric: MIC (µg/mL)
Give bare numbers, in µg/mL.

Below: 3 molecules and their reported MIC.
smiles_repr=C(=N\c1nc[nH]n1)/c1ccco1 assayed_system="Bacillus pumilus" recorded_metric=MIC measured=300
smiles_repr=C(=N/c1nc[nH]n1)/c1cccc2ccccc12 assayed_system="Bacillus pumilus" recorded_metric=MIC measured=300
smiles_repr=C(=N\c1nc[nH]n1)/c1cccs1 assayed_system="Bacillus pumilus" recorded_metric=MIC measured=200

Give MIC for all molecules that follow.
1. Clc1ccc(/N=C/c2cccs2)cc1
2. O=c1c(/C=N/c2nc[nH]n2)coc2ccccc12
3. CCn1cc(C(=O)O)c(=O)c2cc(F)c(N3CCNCC3)cc21
4. Cc1cc(/N=C/c2cccc3ccccc23)no1

Solution:
1: 200; 2: 400; 3: 50; 4: 300
